ASSAY_CONTEXT: in dichloromethane, 283.15 K
MEASUREMENT_NAME: solubility (mole fraction)
Give the value as a plain number.

Ask: I have this compound here, O=[N+]([O-])c1cc([N+](=O)[O-])c(Cl)c(Cl)c1Cl , and I need its recorded solubility (mole fraction).
Result: 0.0822

====

ASSAY_CONTEXT: in DMSO, 308.15 K
MEASUREMENT_NAME: solubility (mole fraction)
Give the value as a plain number.

Ask: I have this compound here, O=[N+]([O-])c1cc([N+](=O)[O-])c(Cl)c(Cl)c1Cl , and I need its recorded solubility (mole fraction).
Result: 0.315

====

ASSAY_CONTEXT: in NMP, 298.15 K
MEASUREMENT_NAME: solubility (mole fraction)
Give the value as a plain number.

Ask: I have this compound here, O=[N+]([O-])c1cc([N+](=O)[O-])c(Cl)c(Cl)c1Cl , and I need its recorded solubility (mole fraction).
Result: 0.338

====

ASSAY_CONTEXT: in ethyl acetate, 278.15 K
MEASUREMENT_NAME: solubility (mole fraction)
Give the value as a plain number.

Ask: I have this compound here, O=[N+]([O-])c1cc([N+](=O)[O-])c(Cl)c(Cl)c1Cl , and I need its recorded solubility (mole fraction).
Result: 0.097

====

ASSAY_CONTEXT: in methanol, 288.15 K
MEASUREMENT_NAME: solubility (mole fraction)
Give the value as a plain number.

Ask: I have this molecule here, O=[N+]([O-])c1cc([N+](=O)[O-])c(Cl)c(Cl)c1Cl , and I need its recorded solubility (mole fraction).
Result: 0.00414

====

ASSAY_CONTEXT: in methanol, 283.15 K
MEASUREMENT_NAME: solubility (mole fraction)
Give the value as a plain number.

Ask: I have this compound here, O=[N+]([O-])c1cc([N+](=O)[O-])c(Cl)c(Cl)c1Cl , and I need its recorded solubility (mole fraction).
Result: 0.0033

====

ASSAY_CONTEXT: in DMF, 293.15 K
MEASUREMENT_NAME: solubility (mole fraction)
Give the value as a plain number.

Ask: I have this compound here, O=[N+]([O-])c1cc([N+](=O)[O-])c(Cl)c(Cl)c1Cl , and I need its recorded solubility (mole fraction).
Result: 0.251

====

ASSAY_CONTEXT: in ethanol, 313.15 K
MEASUREMENT_NAME: solubility (mole fraction)
Give the value as a plain number.

Ask: I have this molecule here, O=[N+]([O-])c1cc([N+](=O)[O-])c(Cl)c(Cl)c1Cl , and I need its recorded solubility (mole fraction).
Result: 0.0118

====

ASSAY_CONTEXT: in chloroform, 303.15 K
MEASUREMENT_NAME: solubility (mole fraction)
Give the value as a plain number.

Ask: I have this molecule here, O=[N+]([O-])c1cc([N+](=O)[O-])c(Cl)c(Cl)c1Cl , and I need its recorded solubility (mole fraction).
Result: 0.141

====

ASSAY_CONTEXT: in 1,2-dichloroethane, 283.15 K
MEASUREMENT_NAME: solubility (mole fraction)
Give the value as a plain number.

Ask: I have this molecule here, O=[N+]([O-])c1cc([N+](=O)[O-])c(Cl)c(Cl)c1Cl , and I need its recorded solubility (mole fraction).
Result: 0.0736

====

ASSAY_CONTEXT: in toluene, 278.15 K
MEASUREMENT_NAME: solubility (mole fraction)
Give the value as a plain number.

Ask: I have this molecule here, O=[N+]([O-])c1cc([N+](=O)[O-])c(Cl)c(Cl)c1Cl , and I need its recorded solubility (mole fraction).
Result: 0.14

====

ASSAY_CONTEXT: in NMP, 293.15 K
MEASUREMENT_NAME: solubility (mole fraction)
Give the value as a plain number.

Ask: I have this compound here, O=[N+]([O-])c1cc([N+](=O)[O-])c(Cl)c(Cl)c1Cl , and I need its recorded solubility (mole fraction).
Result: 0.321

====

ASSAY_CONTEXT: in acetonitrile, 298.15 K
MEASUREMENT_NAME: solubility (mole fraction)
Give the value as a plain number.

Ask: I have this molecule here, O=[N+]([O-])c1cc([N+](=O)[O-])c(Cl)c(Cl)c1Cl , and I need its recorded solubility (mole fraction).
Result: 0.1

====

ASSAY_CONTEXT: in chloroform, 278.15 K
MEASUREMENT_NAME: solubility (mole fraction)
Give the value as a plain number.

Ask: I have this molecule here, O=[N+]([O-])c1cc([N+](=O)[O-])c(Cl)c(Cl)c1Cl , and I need its recorded solubility (mole fraction).
Result: 0.0536

====

ASSAY_CONTEXT: in acetone, 278.15 K
MEASUREMENT_NAME: solubility (mole fraction)
Give the value as a plain number.

Ask: I have this compound here, O=[N+]([O-])c1cc([N+](=O)[O-])c(Cl)c(Cl)c1Cl , and I need its recorded solubility (mole fraction).
Result: 0.109

====

ASSAY_CONTEXT: in isopropanol, 308.15 K
MEASUREMENT_NAME: solubility (mole fraction)
Give the value as a plain number.

Ask: I have this compound here, O=[N+]([O-])c1cc([N+](=O)[O-])c(Cl)c(Cl)c1Cl , and I need its recorded solubility (mole fraction).
Result: 0.00603

====

ASSAY_CONTEXT: in dichloromethane, 303.15 K
MEASUREMENT_NAME: solubility (mole fraction)
Give the value as a plain number.

Ask: I have this compound here, O=[N+]([O-])c1cc([N+](=O)[O-])c(Cl)c(Cl)c1Cl , and I need its recorded solubility (mole fraction).
Result: 0.159

====

ASSAY_CONTEXT: in n-butanol, 288.15 K
MEASUREMENT_NAME: solubility (mole fraction)
Give the value as a plain number.

Ask: I have this compound here, O=[N+]([O-])c1cc([N+](=O)[O-])c(Cl)c(Cl)c1Cl , and I need its recorded solubility (mole fraction).
Result: 0.0032

====

ASSAY_CONTEXT: in acetonitrile, 283.15 K
MEASUREMENT_NAME: solubility (mole fraction)
Give the value as a plain number.

Ask: I have this compound here, O=[N+]([O-])c1cc([N+](=O)[O-])c(Cl)c(Cl)c1Cl , and I need its recorded solubility (mole fraction).
Result: 0.0511

====

ASSAY_CONTEXT: in acetone, 293.15 K
MEASUREMENT_NAME: solubility (mole fraction)

Ask: I have this compound here, O=[N+]([O-])c1cc([N+](=O)[O-])c(Cl)c(Cl)c1Cl , and I need its recorded solubility (mole fraction).
Result: 0.16

====

ASSAY_CONTEXT: in isopropanol, 313.15 K
MEASUREMENT_NAME: solubility (mole fraction)

Ask: I have this molecule here, O=[N+]([O-])c1cc([N+](=O)[O-])c(Cl)c(Cl)c1Cl , and I need its recorded solubility (mole fraction).
Result: 0.00807

====

ASSAY_CONTEXT: in isopropanol, 298.15 K
MEASUREMENT_NAME: solubility (mole fraction)

Ask: I have this compound here, O=[N+]([O-])c1cc([N+](=O)[O-])c(Cl)c(Cl)c1Cl , and I need its recorded solubility (mole fraction).
Result: 0.00333

====

ASSAY_CONTEXT: in methanol, 298.15 K
MEASUREMENT_NAME: solubility (mole fraction)
Give the value as a plain number.

Ask: I have this compound here, O=[N+]([O-])c1cc([N+](=O)[O-])c(Cl)c(Cl)c1Cl , and I need its recorded solubility (mole fraction).
Result: 0.00648

====

ASSAY_CONTEXT: in ethyl acetate, 298.15 K
MEASUREMENT_NAME: solubility (mole fraction)

Ask: I have this molecule here, O=[N+]([O-])c1cc([N+](=O)[O-])c(Cl)c(Cl)c1Cl , and I need its recorded solubility (mole fraction).
Result: 0.167

====

ASSAY_CONTEXT: in tetrachloromethane, 313.15 K
MEASUREMENT_NAME: solubility (mole fraction)
Give the value as a plain number.

Ask: I have this compound here, O=[N+]([O-])c1cc([N+](=O)[O-])c(Cl)c(Cl)c1Cl , and I need its recorded solubility (mole fraction).
Result: 0.0609

====

ASSAY_CONTEXT: in methanol, 303.15 K
MEASUREMENT_NAME: solubility (mole fraction)

Ask: I have this compound here, O=[N+]([O-])c1cc([N+](=O)[O-])c(Cl)c(Cl)c1Cl , and I need its recorded solubility (mole fraction).
Result: 0.00806

====

ASSAY_CONTEXT: in n-butanol, 323.15 K
MEASUREMENT_NAME: solubility (mole fraction)
Give the value as a plain number.

Ask: I have this compound here, O=[N+]([O-])c1cc([N+](=O)[O-])c(Cl)c(Cl)c1Cl , and I need its recorded solubility (mole fraction).
Result: 0.021

====

ASSAY_CONTEXT: in acetonitrile, 278.15 K
MEASUREMENT_NAME: solubility (mole fraction)
Give the value as a plain number.

Ask: I have this molecule here, O=[N+]([O-])c1cc([N+](=O)[O-])c(Cl)c(Cl)c1Cl , and I need its recorded solubility (mole fraction).
Result: 0.0401

Each recorded value in this set is attributed to BigSolDB 2.1.
